Would you mind telling me the reported ALP of each entry?
# Species: Rattus norvegicus
# method: Open TG-GATES - Regimen: Single
# Type: toxicity, organism-based, Sprague-Dawley
# Set-up: regimen Single, gender Male, age 6 weeks
# measurementContext: in vivo, po, 0 mg/kg, 24 h, tissue Plasma, route gavage, dose level Control
Give bare numbers, in IU/L.

Request: Entry under review: CCOc1ccc(NC(C)=O)cc1 [PHENACETIN] . Reported ALP?
Response: 1883.2

Hi there! I need ALP for each item below, if you can.
1. Brc1ccccc1 [BROMOBENZENE]
2. CS(=O)(=O)O.Cc1ccc(NC(=O)c2ccc(CN3CCN(C)CC3)cc2)cc1Nc1nccc(-c2cccnc2)n1 [IMATINIB MESYLATE]
3. NC1=NC(=O)C(c2ccccc2)O1 (centres undefined) [PEMOLINE]
4. CC(C)NNC(=O)c1ccncc1 [IPRONIAZID]
5. CN1C(=O)CCS(=O)(=O)C1c1ccc(Cl)cc1 (centres undefined) [CHLORMEZANONE]

Response:
1600.6
1682.4
1629.4
1519.2
1848.2

====

# Species: Rattus norvegicus
# method: Open TG-GATES - Regimen: Daily Repeat
# Type: toxicity, organism-based, Sprague-Dawley
# Design: regimen Daily Repeat, gender Male, age 6 weeks
# measurementContext: in vivo, po, 100 mg/kg, […], tissue Blood, route gavage, dose level Low, time 14 day
Would you mind telling me the reported MCH of each entry?
One number for each entry, in pg.

Request: Entry under review: COC(=O)C1=C(C)NC(C)=C(C(=O)OC)C1c1ccccc1[N+](=O)[O-] [NIFEDIPINE] . Reported MCH?
Response: 21.1

Request: Entry under review: CCOc1ccc(NC(C)=O)cc1 [PHENACETIN] . Reported MCH?
Response: 19.9

Request: Entry under review: Cc1nnc2n1-c1ccc(Cl)cc1C(c1ccccc1Cl)=NC2 [TRIAZOLAM] . Reported MCH?
Response: 20.2

Hi there! I need MCH for each item below, if you can.
1. CNC(=C[N+](=O)[O-])NCCSCc1ccc(CN(C)C)o1 [RANITIDINE]
2. O=C(OC[C@H]1O[C@@H](OC(=O)c2cc(O)c(O)c(OC(=O)c3cc(O)c(O)c(O)c3)c2)[C@H](OC(=O)c2cc(O)c(O)c(OC(=O)c3cc(O)c(O)c(O)c3)c2)[C@@H](OC(=O)c2cc(O)c(O)c(OC(=O)c3cc(O)c(O)c(O)c3)c2)[C@@H]1OC(=O)c1cc(O)c(O)c(OC(=O)c2cc(O)c(O)c(O)c2)c1)c1cc(O)c(O)c(OC(=O)c2cc(O)c(O)c(O)c2)c1 [TANNIC ACID]
3. CN/C(=N/CCSCc1nc[nH]c1C)NC#N [CIMETIDINE]

Response:
[21.7, 20.9, 19.5]

====

# Species on record: Rattus norvegicus
# method: Open TG-GATES - Regimen: Single
# Format: toxicity, organism-based, Sprague-Dawley
# Parameters: regimen Single, gender Male, age 6 weeks
# measurementContext: in vivo, po, 0 mg/kg, 3 h, tissue Plasma, route gavage, dose level Control
quantityMeasured: PL (mg/dL)
Answers are plain numbers, in mg/dL.

Request: Entry under review: CN1C(=O)CCS(=O)(=O)C1c1ccc(Cl)cc1 (stereo not given) . Reported PL?
Response: 145.2

Request: Entry under review: NC1=NC(=O)C(c2ccccc2)O1 (stereo not given) . Reported PL?
Response: 127

Request: Entry under review: COC(=O)C1=C(C)NC(C)=C(C(=O)OC)C1c1ccccc1[N+](=O)[O-] . Reported PL?
Response: 128.2

Hi there! I need PL for each item below, if you can.
1. Cc1nnc2n1-c1ccc(Cl)cc1C(c1ccccc1Cl)=NC2
2. CCOc1ccc(NC(C)=O)cc1
3. CS(=O)(=O)O.Cc1ccc(NC(=O)c2ccc(CN3CCN(C)CC3)cc2)cc1Nc1nccc(-c2cccnc2)n1 [IMATINIB MESYLATE]
4. CN/C(=N/CCSCc1nc[nH]c1C)NC#N
5. CC(C)NNC(=O)c1ccncc1
6. Brc1ccccc1

Response:
1. 150.2
2. 153.4
3. 163.8
4. 147.6
5. 136.4
6. 159.2

Request: Entry under review: O=C(OC[C@H]1O[C@@H](OC(=O)c2cc(O)c(O)c(OC(=O)c3cc(O)c(O)c(O)c3)c2)[C@H](OC(=O)c2cc(O)c(O)c(OC(=O)c3cc(O)c(O)c(O)c3)c2)[C@@H](OC(=O)c2cc(O)c(O)c(OC(=O)c3cc(O)c(O)c(O)c3)c2)[C@@H]1OC(=O)c1cc(O)c(O)c(OC(=O)c2cc(O)c(O)c(O)c2)c1)c1cc(O)c(O)c(OC(=O)c2cc(O)c(O)c(O)c2)c1 . Reported PL?
Response: 141.4
